target_or_test_system: M4 muscarinic receptor (Homo sapiens, UniProt P08173)
Construct: expressed in transfected cells; host or cells: CHO (M4-CHO)
experiment_notes: Functional mobilization of intracellular calcium (FLIPR) in M4-CHO cells
Format: cell-based
measurement_conditions: Table 4; 100% efficacy is the maximum response obtained with the Carbachol control
Experimental: Functional Mobilization of Intracellular Calcium to Determine Muscarinic Receptor Activity: […] Compounds are prepared at a 2× fold concentration in a 96-well plate (round bottom, Costar Corning cat# 3656), by reconstituting the pre-spotted compounds in bath 1 containing 1 mM probenecid. […] In both assay modes, the fluorescence is recorded for 60 sec (excitation wavelength is […] and emission wavelength 540 nm) using the FLIPR 3 instrument. […]
test_readout: Emax

The cases that follow already have their Emax on record.
CCOC(=O)N1C2CCC1CC(N1CCC3(CC1)CN(C(C)=O)c1ccc(S(C)(=O)=O)cc13)C2 (stereo not shown) :: 25 to 100%
CC#CCN1CC2(CCN(C3CCN(C(=O)OCC)CC3)CC2)c2cc(F)ccc21 :: 25 to 100%
CC(=O)NC1CCC2(CCN(CCC3CCCN(C(=O)OCC(C)C)C3)CC2)c2ccccc21 (stereo not shown) :: < 25%
CC#CCOC(=O)N1CC[C@H](CN2CCC3(CC2)CN(C(C)=O)c2cccc(C)c23)C1 :: 25 to 100%
CC(=O)N1CC2(CCN(C3CCN(C(=O)OCC4CC4)CC3)CC2)c2ccccc21 :: < 25%
CC(=O)N[C@H]1CC2(CCN(CC(=O)N3CCCCC3)CC2)c2ccccc21 :: 25 to 100%
C#CCOC(=O)N1CC[C@@H](CN2CCC3(CC2)CN(C(C)=O)c2ccccc23)C1 :: > 100%
CN(C)C(=O)N1CC2(CCN(C3CCN(C(=O)c4ccoc4)CC3)CC2)c2cc(F)ccc21 :: < 25%

# returns recorded Emax (system: M4 muscarinic receptor (Homo sapiens, UniProt P08173)) for "CCOC(=O)N1CCC(N2CCC3(CC2)CN(C(=O)CCC(C)=O)c2ccc(F)cc23)CC1" 25 to 100%

Lab note: need Emax for "CCOC(=O)N1CCC(N2CCC3(CC2)CN(C(C)=O)c2c(-c4cccc(F)c4)cccc23)CC1" on M4 muscarinic receptor (Homo sapiens, UniProt P08173), anyone have it? < 25%

---

Emax overview
target_or_test_system: M4 muscarinic receptor (Homo sapiens, UniProt P08173)
Construct: expressed in transfected cells; host or cells: CHO (M4-CHO)
Sequence (P08173 1-479): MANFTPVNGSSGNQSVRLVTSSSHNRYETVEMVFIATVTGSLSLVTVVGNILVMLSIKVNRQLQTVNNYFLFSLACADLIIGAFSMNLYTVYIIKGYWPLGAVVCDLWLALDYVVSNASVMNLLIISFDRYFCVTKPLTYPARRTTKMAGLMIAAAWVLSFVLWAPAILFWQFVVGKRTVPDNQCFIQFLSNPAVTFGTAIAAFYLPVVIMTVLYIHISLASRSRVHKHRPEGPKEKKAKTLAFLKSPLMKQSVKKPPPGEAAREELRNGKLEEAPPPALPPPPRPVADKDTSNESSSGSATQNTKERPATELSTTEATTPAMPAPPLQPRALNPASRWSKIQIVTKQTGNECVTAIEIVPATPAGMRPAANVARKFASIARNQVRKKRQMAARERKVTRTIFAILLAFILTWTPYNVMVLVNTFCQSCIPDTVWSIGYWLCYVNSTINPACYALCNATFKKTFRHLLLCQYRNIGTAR
experiment_notes: Functional mobilization of intracellular calcium (FLIPR) in M4-CHO cells
Type: cell-based
measurement_conditions: Table 4; 100% efficacy is the maximum response obtained with the Carbachol control

CC(=O)N[C@H]1CC2(CCN(CCC3=C(C)CCCC3(C)C)CC2)c2ccccc21 [compound 784] :: < 25%
CCOC(=O)N1C2CCC1CC(N1CCC3(CC1)CN(C(C)=O)c1c(C(F)(F)F)cccc13)C2 (stereo not shown) [compound 686] :: < 25%
COCCOC(=O)N1CCC(N2CCC3(CC2)CN(CCOC)c2ccc(F)cc23)CC1 [compound 658] :: 25 to 100%

# next compound below
Form field: reported Emax of CC(=O)N1CC2(CCN(C3CCNCC3)CC2)c2cc(F)ccc21 [compound 547] 25 to 100%

---

target_or_test_system: M4 muscarinic receptor (Homo sapiens, UniProt P08173)
Construct: expressed in transfected cells; host or cells: CHO (M4-CHO)
experiment_notes: Functional mobilization of intracellular calcium (FLIPR) in M4-CHO cells
Type: cell-based
measurement_conditions: M4-CHO cells, calcium mobilization (FLIPR); read-out: M4 Efficacy
Parameter: Emax. Scope: all listed entries.

Below, 4 molecules whose answers are already recorded.
Fc1ccc2c(c1)C1(CCN(C3CC4CCC3C4)CC1)CN2 (stereo not shown) [compound 416] :: < 65%
CC(=O)NC1CC2(CCN(C[C@H]3C[C@H]4C=C[C@H]3C4)CC2)c2ccccc21 (stereo partly shown) [compound 392] :: < 65%
CCOC(=O)N1CCC(CN2CCC3(CCc4ccccc43)CC2)CC1 [compound 414] :: < 65%
Cc1ccc2c(c1)C1(CCN(CC3CC4CCC3C4)CC1)CN2C(=O)OC(C)(C)C (stereo not shown) [compound 382] :: 65 to 85%

So what Emax did Fc1ccc2c(c1)C1(CCN(C[C@H]3C[C@H]4C=C[C@H]3C4)CC1)CO2 [compound 376] get with M4 muscarinic receptor (Homo sapiens, UniProt P08173)? 65 to 85%

Short answer please: Emax, M4 muscarinic receptor (Homo sapiens, UniProt P08173), entry CCNC(=O)N1CC2(CCN(C3CC4CCC3C4)CC2)c2cc(C)ccc21 (stereo not shown) [compound 400] < 65%

# value lookup — system M4 muscarinic receptor (Homo sapiens, UniProt P08173), readout Emax, item CCOC(=O)N1CCC(N2CCC3(CC2)CN(C(=O)OCC)c2ccc(F)cc23)CC1 [compound 427] < 65%

Report Emax for O=C(C1CC1)N1CC2(CCN(C3CC4CCC(C3)N4C(=O)OC3CCC3)CC2)c2cc(F)ccc21 (stereo not shown) [compound 379] tested on M4 muscarinic receptor (Homo sapiens, UniProt P08173). 65 to 85%

Missing value: Emax, M4 muscarinic receptor (Homo sapiens, UniProt P08173), entry CC(=O)N1CC2(CCN(C3CCCC(C(F)(F)F)C3)CC2)c2cc(F)ccc21 (stereo not shown) [compound 425] . Fill in? < 65%

I'm curious: which Emax was measured for CCOC(=O)N1C2CCC1CC(N1CCC3(CC1)CN(C(C)=O)c1ccc(Cl)cc13)C2 (stereo not shown) [compound 417] tested on M4 muscarinic receptor (Homo sapiens, UniProt P08173)? < 65%

What measured Emax is associated with CCOC(=O)N1CCC(N2CCC3(CC2)CN(C(C)=O)c2ccc(F)cc23)CC1 [compound 413] on M4 muscarinic receptor (Homo sapiens, UniProt P08173)? < 65%

Form entry - test system: M4 muscarinic receptor (Homo sapiens, UniProt P08173); read-out: Emax; molecule: CC(=O)NC1CC2(CCN(C[C@@H]3C[C@H]4C=C[C@H]3C4)CC2)c2ccccc21 (stereo partly shown) [compound 408] 65 to 85%

Form entry - test system: M4 muscarinic receptor (Homo sapiens, UniProt P08173); read-out: Emax; molecule: Cc1ccc2c(c1)C1(CCN(C3CC4CCC(C4)C3)CC1)CN2 (stereo not shown) [compound 397] < 65%

# query: Emax | item CCOC(=O)N1CCC(N2CCC3(CC2)CN(CCOC)c2ccc(F)cc23)CC1 [compound 391] | system: M4 muscarinic receptor (Homo sapiens, UniProt P08173) < 65%

Any idea what Emax came out for CCOC(=O)N1CCC(N2CCC3(CC2)CN(C(=O)c2ccccc2)c2ccc(F)cc23)CC1 [compound 384] on M4 muscarinic receptor (Homo sapiens, UniProt P08173)? < 65%

Give the reported Emax for CCCOC(=O)N1C2CCC1CC(N1CCC3(CC1)CN(C(=O)C1CC1)c1ccc(F)cc13)C2 (stereo not shown) [compound 389] (system: M4 muscarinic receptor (Homo sapiens, UniProt P08173)). < 65%

---

target_or_test_system: M4 muscarinic receptor (Homo sapiens, UniProt P08173)
Construct: expressed in transfected cells; host or cells: CHO (M4-CHO)
experiment_notes: Functional mobilization of intracellular calcium (FLIPR) in M4-CHO cells
Format: cell-based
measurement_conditions: M4 receptor, calcium mobilization; read-out: M4 Efficacy
test_readout: Emax

Answered cases to consult:
CC(=O)N1CC2(CCN(C3CCN(C(=O)OCCF)CC3)CC2)c2cc(F)ccc21 :: 65 to 85%
CCOC(=O)N1CCC(N2CCC3(CC2)CN(C(C)=O)c2ccc(-c4ccc(S(C)(=O)=O)cc4)cc23)CC1 :: 65 to 85%
COC(=O)N1CCC(CN2CCC3(CC2)C[C@H](NC(C)=O)c2ccccc23)CC1 :: 65 to 85%
CCOC(=O)N1CCC(N2CCC3(CC2)CN(CC(=O)CC)c2ccc(F)cc23)CC1 :: < 65%
Fc1ccc2c(c1)C1(CCN([C@H]3C[C@@H]4CC[C@@H]3C4)CC1)CO2 :: < 65%

Value lookup for Emax; key = CN(C)C(=O)N1C2CCC1CC(N1CCC3(CC1)COc1ccc(F)cc13)C2 (centres unmarked) < 65%

Quick check: Emax of CCOC(=O)N1C2CCC1CC(N1CCC3(CC1)CNc1ccc(F)cc13)C2 (centres unmarked) ? < 65%

So what's the measured Emax for this one? "CC(=O)N1CC2(CCN(CC3=CCCCC3)CC2)c2cc(F)ccc21" > 85%
